Catalogue of binders with associated EC50
Molecular target: T1, His-tagged extracellular domain (ECD) of human IGSF11 (VSIG3) (human, UniProt Q5DX21 23-241)
T1 construct: partly bought (SinoBiological 13094-H08H); also called IGSF11-HIS; HIS-IGSF11; not shown: HIS6 tag
T1 sequence: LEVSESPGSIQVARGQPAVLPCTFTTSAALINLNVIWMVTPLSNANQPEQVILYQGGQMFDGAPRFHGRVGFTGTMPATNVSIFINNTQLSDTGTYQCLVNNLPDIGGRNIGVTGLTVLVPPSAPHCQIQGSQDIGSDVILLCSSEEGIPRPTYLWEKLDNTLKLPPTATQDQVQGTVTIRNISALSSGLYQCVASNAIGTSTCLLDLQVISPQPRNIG
Experiment: ELISA EC50 grade, IgG1

BINDER | EC50
A-008 (IgG1 format) (antibody, V domains shown, human IgG1 format) VH: QLQLQESGPGLVKPSETLSLTCTVSGGSISSSGYYWGWIRQPPGKGLEWIGSIYYSGSTYYNPSLKSRVTISVDTSKNQFSLKLSSVTAADTAVYYCARHRVRFGEFDAFDIWGQGTMVTVSS VL: QAVLTQPPSVSGAPGERVTLSCTGTSSNVGADFDVHWYQQFPGTAPRLLIFGSDNRPSGVPDRFSGSKSGTSASLAITGLQVEDEADYYCQAYDVRLSGWVFGGGTKLTVL | 0.02 to 0.05 nM

Here is the next item to consider.
Ask: What does the data say about its EC50? Entry: A-001 (IgG1 format) (antibody, V domains shown, human IgG1 format) VH: EVQLVESGGGLVKPGGSLRLSCAASGFTFSSYSMNWVRQAPGKGLEWVSSISSSSSYIYYADSVKGRFTISRDNAKNSLYLQMNSLRAEDTAVYYCVRSIIVQALGITSVFDIWGQGTMVTVSS VL: AIRLTQSPSSLSASVGDRVTISCRASQIISNHLNWYQQKPGKAPKLLIYAASRLQTGVPSRFSGSGSETDYTLTISSLQPEDFATYYCQQSYSNPRTFGHGTKVEIK
Reply: < 0.02 nM
